These measurements were taken from patent US10221165B2.

System: U87MG Cell line (glioblastoma cell line)
Assay: Cell proliferation assay (MTT), in-vitro anticancer activity against U87MG cell line
Type: cell-based
Details: Homo sapiens, U-87 MG, 10 μM, 72 h
The following compounds are listed with their measured viability at 10 µM values.
Your answer should be a plain number; it is taken to be in %.

Below are worked cases with known answers.
COc1ccccc1Nc1nc(N)c(-c2cc(=O)c3ccc(O)cc3o2)s1 [Compound S1-M7] : 45.8
Cc1ccc(Nc2nc(N)c(-c3cc(=O)c4ccc(O)cc4o3)s2)cc1 [Compound S1-M2] : 14.9
COc1ccc(Nc2nc(N)c(-c3cc(=O)c4ccc(O)cc4o3)s2)cc1 [Compound S1-M6] : 12.9

Now, please, on to the next compound.
Per the record, Cc1cccc(C)c1Nc1nc(N)c(-c2cc(=O)c3ccc(O)cc3o2)s1 [Compound S1-M4] has viability at 10 µM of 50.6

====

REPORTED PROPERTY: melting point

Cc1ccccc1Nc1nc(N)c(-c2cc(=O)c3ccc(O)cc3o2)s1 : 268 to 270 °C
COc1ccc(Nc2nc(N)c(-c3cc(=O)c4ccc(OC)cc4o3)s2)cc1 : 220 to 222 °C
COc1ccc2oc(-c3sc(Nc4c(C)cccc4C)nc3N)cc(=O)c2c1 : 228 to 230 °C
COc1ccc2oc(-c3sc(Nc4ccc(C)cc4)nc3N)cc(=O)c2c1 : 280 to 282 °C
COc1ccc2oc(-c3sc(Nc4c(Cl)cccc4Cl)nc3N)cc(=O)c2c1 : 260 to 262 °C

Sample Cc1ccc(Nc2nc(N)c(-c3cc(=O)c4ccccc4o3)s2)cc1 ; melting point observed: 200 to 202 °C

The measured melting point associated with COc1ccc2c(=O)cc(-c3sc(Nc4ccccc4OC)nc3N)oc2c1 reads 210 to 212 °C

Lab book: melting point of COc1ccccc1Nc1nc(N)c(-c2cc(=O)c3ccc(O)cc3o2)s1 noted as 210 to 212 °C

# melting point of Cc1cccc(C)c1Nc1nc(N)c(-c2cc(=O)c3ccc(O)cc3o2)s1 = 224 to 226 °C

compound Nc1nc(Nc2ccccc2)sc1-c1cc(=O)c2ccccc2o1 , melting point observed: 232 to 234 °C

Measured melting point, Nc1nc(Nc2c(Cl)cccc2Cl)sc1-c1cc(=O)c2ccc(O)cc2o1 : 260 to 262 °C

Item: Nc1nc(Nc2ccccc2)sc1-c1cc(=O)c2ccc(O)cc2o1 | melting point: 218 to 220 °C

Lookup result for COc1ccc2oc(-c3sc(Nc4ccccc4C)nc3N)cc(=O)c2c1 ; measured melting point: 288 to 290 °C

What the record says about Cc1ccc(Nc2nc(N)c(-c3cc(=O)c4ccc(O)cc4o3)s2)cc1 : melting point is 244 to 246 °C

Reported melting point ( COc1ccc(Nc2nc(N)c(-c3cc(=O)c4ccc(O)cc4o3)s2)cc1 ) = 220 to 222 °C

====

A collection of compounds and their measured logP
Assay: Log P (Table 4)
Type: physicochemical
Conditions: method not stated
Lab note: jot the number down without any unit.

COc1ccc2oc(-c3sc(Nc4ccc(C)cc4)nc3N)cc(=O)c2c1 : 3.99
COc1ccccc1Nc1nc(N)c(-c2cc(=O)c3ccc(O)cc3o2)s1 : 2.11
COc1ccc2c(=O)cc(-c3sc(Nc4ccccc4OC)nc3N)oc2c1 : 2.5
Cc1cccc(C)c1Nc1nc(N)c(-c2cc(=O)c3ccc(O)cc3o2)s1 : 3.42
Nc1nc(Nc2ccccc2)sc1-c1cc(=O)c2ccccc2o1 : 3.2
Cc1ccccc1Nc1nc(N)c(-c2cc(=O)c3ccc(O)cc3o2)s1 : 2.01
COc1ccc2oc(-c3sc(Nc4ccccc4C)nc3N)cc(=O)c2c1 : 2.11
COc1ccc(Nc2nc(N)c(-c3cc(=O)c4ccc(O)cc4o3)s2)cc1 : 1.92

Documented logP of Nc1nc(Nc2ccccc2)sc1-c1cc(=O)c2ccc(O)cc2o1 : 3.32
